target: Tyrosine-protein kinase Lck (Homo sapiens, UniProt P06239)
Sequence (P06239 whole entry): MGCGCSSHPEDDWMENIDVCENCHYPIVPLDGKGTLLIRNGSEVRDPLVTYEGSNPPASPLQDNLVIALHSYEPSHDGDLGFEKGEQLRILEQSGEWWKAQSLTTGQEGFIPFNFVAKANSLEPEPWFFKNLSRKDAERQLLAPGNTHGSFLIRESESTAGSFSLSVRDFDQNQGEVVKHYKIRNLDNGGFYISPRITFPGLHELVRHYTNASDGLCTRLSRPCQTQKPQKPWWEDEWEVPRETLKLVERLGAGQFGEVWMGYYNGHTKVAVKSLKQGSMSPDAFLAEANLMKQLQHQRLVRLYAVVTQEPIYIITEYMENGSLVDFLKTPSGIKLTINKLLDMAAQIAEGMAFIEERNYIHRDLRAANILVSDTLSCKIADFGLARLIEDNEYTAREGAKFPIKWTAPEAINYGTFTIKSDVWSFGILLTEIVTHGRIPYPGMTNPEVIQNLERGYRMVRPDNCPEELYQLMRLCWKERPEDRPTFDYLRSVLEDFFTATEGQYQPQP
// bucketize IC50: low value: < 9 nM; medium value: ≥ 9 nM and < 20 nM; high value: ≥ 20 nM

Recorded results for 3 compounds are shown here.
>>> assigned_class("c1ccc(-c2c(-c3ccc(N4CCOCC4)cc3)oc3ncnc(NCCN4CCNCC4)c23)cc1")
"medium value"
>>> assigned_class("CN(C)CCOc1ccc(-c2oc3ncnc(NCCN4CCNCC4)c3c2-c2ccccc2)cc1")
"medium value"
>>> assigned_class("CN(C)CCOc1ccc(-c2oc3ncnc(NC[C@@H]4CCCO4)c3c2-c2ccccc2)cc1")
"low value"

Prompt line: Class for CN1CCN(Cc2ccc(-c3oc4ncnc(NC[C@@H]5CCCO5)c4c3-c3ccccc3)cc2)CC1 ?
Response line: low value

Prompt line: Class for c1ccc(CCNc2ncnc3oc(-c4ccc(OCCN5CCCC5)cc4)c(-c4ccccc4)c23)cc1 ?
Response line: low value

Prompt line: Class for O=C(c1ccc(-c2oc3ncnc(NCCN4CCNCC4)c3c2-c2ccccc2)cc1)N1CCCCC1 ?
Response line: high value

Prompt line: Class for c1ccc(-c2c(-c3ccc(OCCN4CCCC4)cc3)oc3ncnc(NCCC4CCNCC4)c23)cc1 ?
Response line: medium value

Prompt line: Class for COc1cc(-c2oc3ncnc(NC[C@@H]4CCCO4)c3c2-c2ccccc2)ccc1OCCN1CCCCC1 ?
Response line: low value

Prompt line: Class for CN1CCOc2cc(-c3oc4ncnc(NCCN5CCNCC5)c4c3-c3ccccc3)ccc21 ?
Response line: high value

Prompt line: Class for c1ccc(-c2c(-c3ccc(CN4CCOCC4)cc3)oc3ncnc(NCCN4CCNCC4)c23)cc1 ?
Response line: high value

Prompt line: Class for CC(C)Nc1ncnc2oc(-c3ccc(OCCN4CCCC4)cc3)c(-c3ccccc3)c12 ?
Response line: high value

Prompt line: Class for CCN1CCN(C(=O)c2ccc(-c3oc4ncnc(NC[C@@H]5CCCO5)c4c3-c3ccccc3)cc2)CC1 ?
Response line: medium value

Prompt line: Class for COc1cc(-c2oc3ncnc(NCCN4CCNCC4)c3c2-c2ccccc2)ccc1OCCN1CCCCC1 ?
Response line: high value

----------
tested on: T-cell; assay: Inhibition of anti-CD3/CD28-induced IL2 secretion in human T cells; type: functional, cell-based
Readout Kind: IC50
Give me the value, and tack the unit on after it.

>>> endpoint_value("COc1cc(-c2oc3ncnc(NC[C@@H]4CCCO4)c3c2-c2ccccc2)ccc1OCCN1CCCCC1")
"0.193 µM"

Reported IC50 for COc1cc(-c2oc3ncnc(NCCN4CCNCC4)c3c2-c2ccccc2)ccc1OCCN1CCCCC1 was 2.63 µM

Reported IC50 for CC(C)(C)Nc1ncnc2oc(-c3ccc(OCCN4CCCC4)cc3)c(-c3ccccc3)c12 was 3.26 µM

Reported IC50 for CCN1CCN(C(=O)c2ccc(-c3oc4ncnc(NC[C@@H]5CCCO5)c4c3-c3ccccc3)cc2)CC1 was 2.42 µM

----------
This document collects IC50 values reported for UniProt:Q02763.
Sequence (Q02763 whole entry): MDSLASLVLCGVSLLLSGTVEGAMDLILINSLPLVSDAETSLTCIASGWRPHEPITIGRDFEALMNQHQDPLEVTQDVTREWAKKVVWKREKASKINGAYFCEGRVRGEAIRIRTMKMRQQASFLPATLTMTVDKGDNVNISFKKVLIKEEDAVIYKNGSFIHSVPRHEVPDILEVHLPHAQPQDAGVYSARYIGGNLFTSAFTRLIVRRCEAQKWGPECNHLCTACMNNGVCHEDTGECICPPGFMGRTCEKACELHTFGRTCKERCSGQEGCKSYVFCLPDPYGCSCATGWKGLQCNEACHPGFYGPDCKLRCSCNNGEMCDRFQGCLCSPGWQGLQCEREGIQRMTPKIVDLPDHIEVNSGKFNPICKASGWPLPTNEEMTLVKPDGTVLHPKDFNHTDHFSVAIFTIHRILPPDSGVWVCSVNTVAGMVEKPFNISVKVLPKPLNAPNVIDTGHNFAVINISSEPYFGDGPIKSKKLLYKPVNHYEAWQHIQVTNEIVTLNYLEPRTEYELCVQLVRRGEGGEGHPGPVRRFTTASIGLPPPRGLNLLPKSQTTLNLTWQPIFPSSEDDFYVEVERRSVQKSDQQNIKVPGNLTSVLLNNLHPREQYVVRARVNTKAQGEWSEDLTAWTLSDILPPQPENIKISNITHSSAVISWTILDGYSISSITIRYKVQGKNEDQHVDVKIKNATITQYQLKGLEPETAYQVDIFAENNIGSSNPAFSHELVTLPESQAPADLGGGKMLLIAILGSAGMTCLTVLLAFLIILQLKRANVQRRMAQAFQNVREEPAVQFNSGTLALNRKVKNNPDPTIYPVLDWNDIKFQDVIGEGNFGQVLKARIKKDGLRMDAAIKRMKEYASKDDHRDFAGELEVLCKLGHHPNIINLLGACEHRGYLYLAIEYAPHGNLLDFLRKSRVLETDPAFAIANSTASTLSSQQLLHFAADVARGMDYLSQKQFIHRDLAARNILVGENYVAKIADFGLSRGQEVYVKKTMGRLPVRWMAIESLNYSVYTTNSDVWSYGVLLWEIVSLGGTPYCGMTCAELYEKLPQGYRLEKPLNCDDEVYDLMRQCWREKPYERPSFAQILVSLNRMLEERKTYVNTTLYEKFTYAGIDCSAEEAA

>>> endpoint_value("c1ccc(-c2c(-c3ccc(OCCN4CCCC4)cc3)oc3ncnc(NCCN4CCNCC4)c23)cc1")
"> 25 µM"

Reported IC50 for CC(C)Nc1ncnc2oc(-c3ccc(OCCN4CCCC4)cc3)c(-c3ccccc3)c12 was > 8.33 µM

----------
target: UniProt:P00533
Sequence (P00533 whole entry): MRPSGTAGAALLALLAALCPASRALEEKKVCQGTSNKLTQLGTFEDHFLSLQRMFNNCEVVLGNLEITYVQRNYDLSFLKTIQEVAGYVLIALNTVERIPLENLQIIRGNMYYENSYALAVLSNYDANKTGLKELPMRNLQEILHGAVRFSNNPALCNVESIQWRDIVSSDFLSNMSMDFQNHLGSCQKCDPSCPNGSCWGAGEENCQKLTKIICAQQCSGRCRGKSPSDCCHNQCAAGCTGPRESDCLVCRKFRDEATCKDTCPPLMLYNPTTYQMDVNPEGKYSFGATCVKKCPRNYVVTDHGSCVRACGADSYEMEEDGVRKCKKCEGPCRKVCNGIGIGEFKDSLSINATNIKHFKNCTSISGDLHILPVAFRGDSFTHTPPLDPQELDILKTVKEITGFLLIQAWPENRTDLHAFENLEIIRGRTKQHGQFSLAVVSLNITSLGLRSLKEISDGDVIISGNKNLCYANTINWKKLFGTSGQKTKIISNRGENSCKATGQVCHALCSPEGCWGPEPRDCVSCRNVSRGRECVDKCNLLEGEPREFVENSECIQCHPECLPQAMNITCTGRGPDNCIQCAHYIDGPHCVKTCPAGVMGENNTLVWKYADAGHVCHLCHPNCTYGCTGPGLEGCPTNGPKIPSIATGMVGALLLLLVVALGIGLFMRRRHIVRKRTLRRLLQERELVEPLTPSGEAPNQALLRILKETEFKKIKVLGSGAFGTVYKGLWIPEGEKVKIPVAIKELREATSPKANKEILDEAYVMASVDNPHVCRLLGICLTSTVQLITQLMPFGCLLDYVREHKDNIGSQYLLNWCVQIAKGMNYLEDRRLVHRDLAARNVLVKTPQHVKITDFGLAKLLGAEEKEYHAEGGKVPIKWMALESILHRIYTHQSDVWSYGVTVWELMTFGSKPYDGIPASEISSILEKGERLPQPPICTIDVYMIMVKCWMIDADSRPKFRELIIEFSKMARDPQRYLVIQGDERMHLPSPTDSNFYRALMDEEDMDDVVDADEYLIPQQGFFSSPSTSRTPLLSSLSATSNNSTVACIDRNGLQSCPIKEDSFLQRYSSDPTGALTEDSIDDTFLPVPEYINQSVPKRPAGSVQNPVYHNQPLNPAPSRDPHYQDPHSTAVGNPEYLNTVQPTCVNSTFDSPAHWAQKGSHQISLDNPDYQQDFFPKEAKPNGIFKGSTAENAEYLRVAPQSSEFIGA
Below, each of the compounds is paired with its reported IC50 value.
# number only, unit nM dropped from output

>>> endpoint_value("c1ccc(-c2c(-c3ccc(OCCN4CCCC4)cc3)oc3ncnc(NCCN4CCNCC4)c23)cc1")
397

Then this compound:
Reported IC50 for CC(C)Nc1ncnc2oc(-c3ccc(OCCN4CCCC4)cc3)c(-c3ccccc3)c12 was 1030
